Test system: Canis familiaris
method-notes: Total drug level in beagle dog treated with [14C]PF-00734200 assessed as total radio activity at 5 mg/kg, po administered as single dose […]
Assay type: ADME, organism-based, Canis lupus familiaris
Design: dose 5 mg/kg, route oral
run-conditions: in vivo
experimental-readout: Drug uptake (%)

N=C(N)N1CCN([C@@H]2CN[C@H](C(=O)N3CCC(F)(F)C3)C2)CC1; 5.8
O=C([C@@H]1C[C@H](N2CCN(c3ncccn3)CC2)CN1)N1CCC(F)(F)C1; 27.4

a: O=C([C@@H]1C[C@H](N2CCN(c3ncc(O)cn3)CC2)CN1)N1CCC(F)(F)C1
b: O=C(O)[C@H]1O[C@@H](Oc2cnc(N3CCN([C@@H]4CN[C@H](C(=O)N5CCC(F)(F)C5)C4)CC3)nc2)[C@H](O)[C@@H](O)[C@@H]1O
c: O=C(O)[C@@H]1C[C@H](N2CCN(c3ncccn3)CC2)CN1
Query: Sort by Drug uptake, descending. Reply with the labels, ordered as the question asks.
Reply: a, c, b

----------
System: Plasma
method-notes: Drug level in Sprague-Dawley rat plasma treated with [14C]PF-00734200 at 5 mg/kg, po administered as single dose by LC-MS/MS method
Format: ADME, organism-based
Design: dose 5 mg/kg, route oral
run-conditions: in vivo
experimental-readout: Drug uptake (%)

O=C(O)[C@@H]1C[C@H](N2CCN(c3ncccn3)CC2)CN1; 8.4
O=C([C@@H]1C[C@H](N2CCN(c3ncc(O)cn3)CC2)CN1)N1CCC(F)(F)C1; 2.7
O=C([C@@H]1C[C@H](N2CCN(c3ncccn3)CC2)CN1)N1CCC(F)(F)C1 [GOSOGLIPTIN]; 79.9

P: N=C(N)N1CCN([C@@H]2CN[C@H](C(=O)N3CCC(F)(F)C3)C2)CC1
Q: O=C(O)[C@H]1O[C@@H](Oc2cnc(N3CCN([C@@H]4CN[C@H](C(=O)N5CCC(F)(F)C5)C4)CC3)nc2)[C@H](O)[C@@H](O)[C@@H]1O
Query: // compare measured Drug uptake between P and Q ; output the lower one Answer format: the label of the selected item.
Reply: P
(P: 2.6%, Q: 4.7%)

Hello, the source for this data is ChEMBL document CHEMBL3526145, in case you need it.
